The reported numbers originate from patent US20240279318A1.

- target desc: T1, AFP158/HLA-A*02:01 complex (human)
- T1 construct: flowed as analyte in SPR
- assay: SPR, crude scFv captured, pMHC analyte;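 further: pMHC analyte injected at three concentrations, association phase of one hundred seconds, then running buffer for dissociation, rates fitted from both curves, KD derived from the rates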
metric name: Kd (nM)

INSERT INTO assay_data (binder, result_units, value_observed) VALUES
  ('AS170036 VL1VH1-57H98Q (scFv, also called 09-AS170036 VL1VH1-57H98Q) scFv: QSALTQPRSVSGSPGQSVTISCAGTSSDVGSENYVSWYQQHPGKAPKLMIYQVNKRASGVPDRFSGSKSGNTASLTISGLQAEDEADYYCASYRSSDQNIVFGGGTKLTVLGGGGSGGGGSGGGGSEVQLVESGGGLVQPGGSLRLSCAASGFTFSSYAMSWVRQAPGKGLEWVSTINSGTGHPYYADSVKGRFTISRDNSKNTLYLQMNSLRAEDTAVYYCAKNFFDGSWFLGPPAMDYWGQGTLVTVSSHHHHHH', 'nM', 9.1);
